Provenance of the data: PubChem BioAssay AID1159580

measurement_protocol: chemical genetic growth profiling, strain panel (AID 1159580);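 further: tested at 20 µM; growth read once vehicle control cultures reached saturation at 30 °C; 1 = growth at the plate median or of vehicle wells; lower values mean less growth of the strain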
condition_set: S. cerevisiae deletion strains, growth OD, locus YPL055C, strain LGE1, stronger effect = lower value
Out of some 5,500 compounds screened, about 2,000 (36%) were called active. Not shown: some 18% with an inconclusive outcome. The list shows a part of the results.
test_readout: normalized growth
Enter the number alone.

- C[C@]12CCC3c4ccc(O)cc4CCC3C1CC[C@@H]2OC(=O)CCC1CCCC1 (stereo partly drawn): 0.994
- COc1cc(OC)cc(OC)c1: 1.02
- COc1ccc2c3c1O[C@H]1C(=O)CC[C@@]4(O)C(C2)N(CC2CC2)CCC314 (stereo partly drawn): 1
- N#CC(C#N)=CNc1cc(C(F)(F)F)ccc1N1CCCCC1: 0.989
- COc1ccc(-c2ccc(N)[n+](CCCC(=O)O)n2)cc1: 1.01
- COc1cc(O)c(C(=O)O)c(O)c1: 1.01
- Cc1ncc([N+](=O)[O-])n1CCO: 0.974

Next item in the queue.
Query block: Fill in normalized growth for record O=C(O)CCC/C=C\C[C@@H]1[C@@H](/C=C/[C@H](O)C2Cc3ccccc3C2)[C@@H](F)C[C@@H]1O
Result block: 0.99
